Values from patent US12187684B2

Biological target: RORγ LBD-GST tagged (Homo sapiens)
Construct: RORγ LBD-GST tagged (Cat No. RORC-114H, Creative Biomart); purchased Creative Biomart RORC-114H
Sequence (P51449 269-508 limits assumed): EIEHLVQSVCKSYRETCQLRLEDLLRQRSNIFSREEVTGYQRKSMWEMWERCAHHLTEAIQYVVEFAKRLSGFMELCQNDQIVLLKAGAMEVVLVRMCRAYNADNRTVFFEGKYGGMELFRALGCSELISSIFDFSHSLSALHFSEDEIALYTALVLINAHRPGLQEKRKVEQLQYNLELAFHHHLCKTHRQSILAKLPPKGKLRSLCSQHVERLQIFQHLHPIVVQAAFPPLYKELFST
Test: LanthaScreen TR-FRET RORγ coactivator assay
Assay type: biochemical
Conditions: Fluorescein-D22 coactivator peptide, 1 hour room temperature
measure-name: IC50 (µM)

CCS(=O)(=O)c1ccc(C(CCO)c2nc3c(Cl)c(N4CCC(F)(F)CC4)c(Cl)cc3[nH]2)cc1 (single isomer, unassigned) [the longer retention time of 139 and 140] | 0.035
NC(=O)CC(c1ccc(S(=O)(=O)CC2CC2)cc1)c1nc2cc(-c3ccccc3OC(F)F)c(Cl)cc2[nH]1 (single isomer, unassigned) | 0.21
CCCS(=O)(=O)c1ccc(C(CO)c2nc3c(Cl)c(-c4ccccc4OC(F)(F)F)c(Cl)cc3[nH]2)cc1 (stereo not shown) | 0.646
O=S(=O)(CC1CC1)c1ccc(C(CCO)c2nc3cc(Cl)c(-c4ccccc4OC(F)F)c(Cl)c3[nH]2)cc1 (stereo not shown) | 0.005
NC(=O)CC(c1ccc(S(=O)(=O)CC2CC2)cc1)c1nc2cc(Cl)c(N3CCC(F)(F)CC3)c(Cl)c2[nH]1 (stereo not shown) [Example 154] | 0.049
O=S(=O)(CC1CC1)c1ccc(C(CCN2CCOCC2)c2nc3cc(Cl)c(N4CCC(F)(F)CC4)c(Cl)c3[nH]2)cc1 (stereo not shown) | 0.71

(1) CS(=O)(=O)c1ccc(C(O)c2nc3c(Cl)c(-c4ccccc4OC(F)F)c(Cl)cc3[nH]2)cc1 (stereo not shown)
(2) CCS(=O)(=O)c1ccc(Cc2nc3c(Cl)c(N4CCC(F)(F)CC4)c(Cl)cc3[nH]2)cc1
Ask: For this pair, 1 and 2 , which shows a numerically higher IC50? Your answer should be the label of the entry you select.
Result: 1
(1: 0.255 µM, 2: 0.059 µM)
